Below, each entry is listed with its recorded composite z-score.
Test system: Wnt5a (protein binding on small-molecule microarray)
Assay: Wnt5a binders on small-molecule microarray, primary screen, biophysical, 635/667 nm fluorescence (AID 1142);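 note: fluorescence read at 667 nm with signal to noise per printed feature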
Settings: 635 nm fluorescence, higher = more signal
Returns: the value as a bare number; no unit string appended.

Recorded composite z-score, per entry:
query: Sample O=C1OCCC/C=C\[C@H]2OC34C=CCN(Cc5ccccc5)C(=O)[C@H]3N(CCO)C(=O)[C@@H]4C12 (some centres not stated) — what was its composite z-score?
result: 0.0691

query: Sample "CC[C@@H](O[Si](C#C[Si](C(C)C)(C(C)C)C(C)C)(C(C)C)C(C)C)c1cn([C@H](CO)Cc2ccccc2)nn1" — what was its composite z-score?
result: -0.142

query: Sample "C=C(COC)/C(=C/C[C@@H](OC(C)=O)c1cccc(OCCO)c1)c1cnc2ccccc2c1" — what was its composite z-score?
result: 0.603

Continuing:
query: Sample "C=C(CCCC)/C(=C/C[C@@H](OC(C)=O)c1ccc(OCCO)cc1)c1cc(C(=O)OC)ccc1OC" — what was its composite z-score?
result: -0.0169

query: Sample "CCOC(=O)C=C1C[C@@H](c2cccc([N+](=O)[O-])c2)O[C@@H](c2cccc([N+](=O)[O-])c2)O1" — what was its composite z-score?
result: 0.719

query: Sample CC(C)N1CC=CC23O[C@@H]4/C=C\CCCOC(=O)C4[C@H]2C(=O)N(C(C)CO)[C@@H]3C1=O (some centres not stated) — what was its composite z-score?
result: -0.603

query: Sample "Cc1ccc(S[C@]2(C(=O)NCc3ccccc3)CC(=O)N(Cc3ccccc3Cl)[C@@H]2c2ccc(CO)cc2)cc1" — what was its composite z-score?
result: -0.132
